Below: a set of entries, each annotated with reported responders at 40 mg/kg.
- System: hypoxia-induced death
- Assay Info: Anoxic Nitrogen Test in Rats (survival after 1 min pure N2)
- Format: in vivo, male Sprague-Dawley rats
- Cond: Rattus norvegicus, ip, Table 3; 40 mg/kg i.p. 60 minutes prior to anoxia testing; read-out: Anti-ischemic Rating

{"Compound": "O=C(NC(CCCN1CCN(c2ncc(F)cn2)CC1)c1ccc(F)cc1)c1ccccc1 (centres unmarked) [Example 43]", "responders at 40 mg/kg": "25 to 50%"}
{"Compound": "O=C(NC(CCCN1CCN(c2ncc(F)cn2)CC1)c1ccc(F)c2ccccc12)c1ccc(F)cc1 (centres unmarked) [Example 26]", "responders at 40 mg/kg": "25 to 50%"}
{"Compound": "O=C(OC(CCCN1CCN(c2ncc(F)cn2)CC1)c1ccc(F)cc1)c1ccccc1 (centres unmarked) [Example 46]", "responders at 40 mg/kg": "25 to 50%"}
{"Compound": "Fc1cnc(N2CCN(CCCCC3CCCCC3)CC2)nc1 [Example 31]", "responders at 40 mg/kg": "25 to 50%"}
{"Compound": "O=C(CCCN1CCN(c2ncc(F)cn2)CC1)C1CCCCC1 [Example 48]", "responders at 40 mg/kg": "76 to 100%"}
{"Compound": "O=S(=O)(NC(CCCN1CCN(c2ncc(F)cn2)CC1)C1CCCCC1)c1ccc(F)cc1 (centres unmarked) [Example 30]", "responders at 40 mg/kg": "25 to 50%"}
{"Compound": "Fc1ccc(CCN2CCN(c3ncc(F)cn3)CC2)cc1 [Example 47]", "responders at 40 mg/kg": "< 25%"}
{"Compound": "Fc1cnc(N2CCN(CCCCc3ccc(F)c4ccccc34)CC2)nc1 [Example 28]", "responders at 40 mg/kg": "51 to 75%"}
{"Compound": "O=C(NC(CCCN1CCN(c2ncc(F)cn2)CC1)C1CCCCC1)c1ccc(F)cc1 (centres unmarked) [Example 49]", "responders at 40 mg/kg": "< 25%"}
{"Compound": "O=S(=O)(NC(CCCN1CCN(c2ncc(F)cn2)CC1)c1ccc(F)c2ccccc12)c1ccc(F)cc1 (centres unmarked) [Example 45]", "responders at 40 mg/kg": "< 25%"}
{"Compound": "O=C(NC(CCCN1CCN(c2ncc(F)cn2)CC1)c1ccc(F)cc1)c1ccc(F)c2ccccc12 (centres unmarked) [Example 44]", "responders at 40 mg/kg": "25 to 50%"}
